# Bliss excess annotations
Test system: NCI-H2023 (Non-Small Cell Lung Carcinoma);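 note: after 72 h of two-drug dosing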
assay_explanation: Bliss excess, mean over the matrix (fraction); higher = more synergy
// no unit string in output, number only

See these solved cases before continuing.
molecule	Bliss excess
CC1(C)CCC(CN2CCN(c3ccc(C(=O)NS(=O)(=O)c4ccc(NCC5CCOCC5)c([N+](=O)[O-])c4)c(Oc4cnc5[nH]ccc5c4)c3)CC2)=C(c2ccc(Cl)cc2)C1 [Venetoclax] + C1CN(CCC1(C(=O)N[C@@H](CCO)C2=CC=C(C=C2)Cl)N)C3=NC=NC4=C3C=CN4 [Capivasertib] (first compound max 1 µM, 7x7, partner max 3 µM)	-0.0449
N#Cc1cnc(Nc2cc(NC[C@H]3CNCCO3)c(C(F)(F)F)cn2)cn1 [SRA737] + CCc1c2c(nc3ccc(O)cc13)-c1cc3c(c(=O)n1C2)COC(=O)[C@]3(O)CC [SN-38] (first compound max 10 µM, 7x7, partner max 0.3 µM)	-0.0813
Cc1cc2ncnn2cc1Nc1ncc2c(n1)n(C1CCOCC1)c(=O)n2C [AZD7648] + O=C(c1cc(Cc2n[nH]c(=O)c3ccccc23)ccc1F)N1CCN(C(=O)C2CC2)CC1 [Olaparib] (first compound max 10 µM, 7x7, partner max 10 µM)	-0.0892

## Input Item CC1(C)CCC(CN2CCN(c3ccc(C(=O)NS(=O)(=O)c4ccc(NCC5CCOCC5)c([N+](=O)[O-])c4)c(Oc4cnc5[nH]ccc5c4)c3)CC2)=C(c2ccc(Cl)cc2)C1 [Venetoclax] + CCN(CCO)CCCOc1ccc2c(Nc3cc(CC(=O)Nc4cccc(F)c4)[nH]n3)ncnc2c1 [AZD2811] (first compound max 1 µM, 7x7, partner max 1 µM) : provide Bliss excess
## Output -0.067
